# System: P. falciparum strain CP286
# method_summary: Parasites growth inhibition assay, strain CP286
# Assay type: cell-based
# reported_conditions: Plasmodium falciparum
For each entry below, report its EC50 value.
Give the value in nM but do not write nM after it.

Measured on P. falciparum strain CP286, Cc1c(-c2ccc(Cc3ccc(OC(F)(F)F)cc3)c(CN3CCCC3)c2)[nH]c2cccc(F)c2c1=O has a documented EC50 of 4.81

# Cc1c(-c2ccc(Cc3ccc(OC(F)(F)F)cc3)c(CN(C)C)c2)[nH]c2cccc(F)c2c1=O with P. falciparum strain CP286: EC50 is 4.56

----------
# System: HepG2 cells
# method_summary: Cytotoxicity assay
# Format: cell-based, Human
# reported_conditions: CC50 / EC50 on 3D7
observed_property: SI (selectivity index)

Consider Cc1c(-c2ccc(Cc3ccc(OC(F)(F)F)cc3)c(CN(C)C)c2)[nH]c2cccc(F)c2c1=O [Compound 24] . Its measured SI (selectivity index) is >4785

Measured SI (selectivity index) of CCCCCCCN(C)Cc1cc(-c2[nH]c3cccc(F)c3c(=O)c2C)ccc1Cc1ccc(OC(F)(F)F)cc1 [Compound 31] : >33,333

response.value for CCCCCN(C)Cc1cc(-c2[nH]c3cccc(F)c3c(=O)c2C)ccc1Cc1ccc(OC(F)(F)F)cc1 [Compound 30] (field: SI (selectivity index)) = >16,393

# SI (selectivity index) of CCCN(C)Cc1cc(-c2[nH]c3cccc(F)c3c(=O)c2C)ccc1Cc1ccc(OC(F)(F)F)cc1 [RYL-581] = >178,571

Value of SI (selectivity index) reported for the molecule Cc1c(-c2ccc(Cc3ccc(OC(F)(F)F)cc3)c(CN3CCCC3)c2)[nH]c2cccc(F)c2c1=O [Compound 25] is >3460

----------
# measured_on: PF11 bc1 complex with P. falciparum-like modifications in the Qo-site (Saccharomyces cerevisiae, UniProt P00163, C133V/C134L/F296L/H141Y/I299L/L275F/M295V/R283K/V135P/Y136W)
# method_summary: Decylubiquinol-cytochrome c reductase activity, yeast bc1 mutant PF11
pIC50: −log10 of the molar value.
observed_property: pIC50

Given item CCCN(C)Cc1cc(-c2[nH]c3cccc(F)c3c(=O)c2C)ccc1Cc1ccc(OC(F)(F)F)cc1 , the value recorded as its pIC50 is ~6.52
